Entries and their Th-227 in small intestine values follow.
# assayProcedure: Biodistribution study in LNCaP tumor-bearing mice (Th227 counted in organs)
# Assay type: in vivo, SCID mice
# particulars: 4 hr; 1500 kBq/kg

>  <compound>
O=C([O-])CN1CCN(CC(=O)[O-])CCN(CC(=O)NCc2ccc(C(=O)N[C@@H](Cc3ccc4ccccc4n3)C(=O)NCCCC[C@H](NC(=O)N[C@@H](CCC(=O)O)C(=O)O)C(=O)O)nc2)CCN(CC(=O)[O-])CC1.[227Th+4] [Example 34-B-227Th]

>  <units>
% ID Th-227/g organ

>  <Th-227 in small intestine>
1.13

$$$$
>  <compound>
Cc1cc(C(=O)NCCN(CCCN(CCNC(=O)c2cc(C)n(CC(=O)O)c(=O)c2[O-])CCNC(=O)c2cc(C)n(CC(=O)NCC3CCC(C(=O)NC(Cc4cnc5ccccc5c4)C(=O)NCCCCC(NC(=O)NC(CCC(=O)O)C(=O)O)C(=O)O)CC3)c(=O)c2[O-])CCNC(=O)c2cc(C)n(CC(=O)NCC3CCC(C(=O)NC(Cc4cnc5ccccc5c4)C(=O)NCCCCC(NC(=O)NC(CCC(=O)O)C(=O)O)C(=O)O)CC3)c(=O)c2[O-])c([O-])c(=O)n1CC(=O)O.[227Th+4] (stereo not shown) [Example 22-C dimer-227Th]

>  <units>
% ID Th-227/g organ

>  <Th-227 in small intestine>
0.21

$$$$
>  <compound>
O=C([O-])CN1CCN(CC(=O)[O-])CCN(CC(=O)NCC2CCC(C(=O)NC(Cc3ccc4ccccc4c3)C(=O)NCCCCC(NC(=O)NC(CCC(=O)O)C(=O)O)C(=O)O)CC2)CCN(CC(=O)[O-])CC1.[227Th+4] (stereo not shown) [Example 1-B-227Th]

>  <units>
% ID Th-227/g organ

>  <Th-227 in small intestine>
0.74

$$$$
>  <compound>
O=C([O-])CN1CCN(CC(=O)[O-])CCN(CC(=O)NCC2CCC(C(=O)NC(Cc3ccc4ccccc4c3)C(=O)NCCCCC(NC(=O)NC(CCC(=O)O)C(=O)O)C(=O)O)CC2)CCN(CC(=O)[O-])CC1.[227Th+4] [Example 1-B-D-227Th]

>  <units>
% ID Th-227/g organ

>  <Th-227 in small intestine>
0.17

$$$$

###

# assayProcedure: Biodistribution study in LNCaP tumor-bearing mice (Th227 counted in organs)
# Assay type: in vivo, SCID mice
# particulars: 0.25 h; 1500 kBq/kg
Entries and their Th-227 in Spleen values follow.
metric: Th-227 in Spleen (% ID Th-227/g organ)

>  <molecule>
O=C([O-])CN1CCN(CC(=O)[O-])CCN(CC(=O)NCc2ccc(C(=O)N[C@@H](Cc3ccc4ccccc4n3)C(=O)NCCCC[C@H](NC(=O)N[C@@H](CCC(=O)O)C(=O)O)C(=O)O)nc2)CCN(CC(=O)[O-])CC1.[227Th+4] [Example 34-B-227Th]

>  <observedValue>
17.32

$$$$
>  <molecule>
O=C([O-])CN1CCN(CC(=O)[O-])CCN(CC(=O)NCC2CCC(C(=O)NC(Cc3ccc4ccccc4c3)C(=O)NCCCCC(NC(=O)NC(CCC(=O)O)C(=O)O)C(=O)O)CC2)CCN(CC(=O)[O-])CC1.[227Th+4] (stereo not shown) [Example 1-B-227Th]

>  <observedValue>
11.41

$$$$
>  <molecule>
Cc1cc(C(=O)NCCN(CCCN(CCNC(=O)c2cc(C)n(CC(=O)O)c(=O)c2[O-])CCNC(=O)c2cc(C)n(CC(=O)NCC3CCC(C(=O)NC(Cc4cnc5ccccc5c4)C(=O)NCCCCC(NC(=O)NC(CCC(=O)O)C(=O)O)C(=O)O)CC3)c(=O)c2[O-])CCNC(=O)c2cc(C)n(CC(=O)NCC3CCC(C(=O)NC(Cc4cnc5ccccc5c4)C(=O)NCCCCC(NC(=O)NC(CCC(=O)O)C(=O)O)C(=O)O)CC3)c(=O)c2[O-])c([O-])c(=O)n1CC(=O)O.[227Th+4] (stereo not shown) [Example 22-C dimer-227Th]

>  <observedValue>
13.87

$$$$
>  <molecule>
O=C([O-])CN1CCN(CC(=O)[O-])CCN(CC(=O)NCC2CCC(C(=O)NC(Cc3ccc4ccccc4c3)C(=O)NCCCCC(NC(=O)NC(CCC(=O)O)C(=O)O)C(=O)O)CC2)CCN(CC(=O)[O-])CC1.[227Th+4] [Example 1-B-D-227Th]

>  <observedValue>
1.91

$$$$
